Target or system IL-13 (Homo sapiens, UniProt P35225): recorded IC50 listed per item.
MEASURED_PROPERTY: IC50

                                   compound  measurement
0  CN(CCCN(Cc1cccnc1)Cc1cn(-c2cccc(C(F)(F)F)c2)c2ccccc12)C1CCCCC1      > 50 µM
1  NCCCCN(Cc1cccnc1F)Cc1cn(S(=O)(=O)c2ccccc2)c2ccccc12      > 50 µM
2  O=S(=O)(c1ccccc1)n1cc(CN(Cc2cccc(F)n2)CC2CCCN(C3CCCCC3)C2)c2ccccc21 (centres unmarked)       9.2 µM
3  CN(CCN(Cc1cccnc1)Cc1cn(-c2cccc(C(F)(F)F)c2)c2ccccc12)C1CCCCC1      > 50 µM
4  CCN(CCCCN(Cc1cccnc1F)Cc1cn(S(=O)(=O)c2ccccc2)c2ccccc12)C1CCCCC1        36 µM
5  O=S(=O)(c1ccccc1)n1cc(CN(CCNC2CCCCC2)Cc2ccncc2)c2ccccc21      > 50 µM
6  FC(F)(F)c1cccc(-n2cc(CN(Cc3cccnc3)CC3CCCN(C4CCCCC4)C3)c3ccccc32)c1 (centres unmarked)       9.9 µM
7  CCCN(CCOCCN(Cc1cccnc1F)Cc1cn(S(=O)(=O)c2ccccc2)c2ccccc12)C1CCCC1      40.4 µM

Source of measurements: patent US20230416239A1
